target: T1, extracellular domain of human ILT3 (huILT3-ECD) (human, UniProt Q8NHJ6 22-259); assay: SPR (Biacore), antibody captured via anti-Fc on CM5 chip, soluble ILT3-ECD injected, 37 C
T1 construct: also called human ILT3-ECD
// reported kon per item
MEASUREMENT LABEL: kon (M⁻¹ s⁻¹)

• anti-ILT3 antibody 3A3 (antibody, V domains shown, Mouse monoclonal antibody from hybridoma) VH: QVQLKESGPGLVAPSQSLSITCTVSGFSLTSYGVHWVRQPPGKGLEWLGVIWPGGTINYNSALMSRLSISKDNSKSQVFLKLNSLQTDDTAMYYCASDKYDGGWFAYWGQGTLVTVSA VL: DIVMTQSQKFMSTSVGDRVSITCKASQNVRTAVAWYQQKPGQSPEALIYLASNRHTGVPDRFTGSGSGTDFSLSISNVQSEDLADYFCLQHLNYPLTFGSGTKLEIK = 330000
• anti-ILT3 antibody 5A7 (antibody, V domains shown, Mouse monoclonal antibody from hybridoma) VH: EVKLVESGGGLVKPGGSLKLSCAASGFTFSSYGMSWVRQTPEKRLEWVATISGGGSYTNYPDSVKGRLTISRDNAKKNLYLEMSSLRSEDTALYYCARREWRMTLYAMDYWGQGTSVTVSS VL: NIVLTQSPASLAVSLGQRATISCRASESVDSYGNSFMHWYQQKPGQAPKLLIYLTSNLESGVPARFSGSGSRTDFTLTIDPVEADDAATYYCQQNNEDPFTFGSGTKLEIK = 3.8e+06
• anti-ILT3 antibody 48A6 (antibody, V domains shown, Mouse monoclonal antibody from hybridoma) VH: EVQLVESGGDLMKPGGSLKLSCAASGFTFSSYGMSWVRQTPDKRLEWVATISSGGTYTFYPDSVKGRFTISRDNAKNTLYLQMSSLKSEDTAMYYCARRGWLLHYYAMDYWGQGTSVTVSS VL: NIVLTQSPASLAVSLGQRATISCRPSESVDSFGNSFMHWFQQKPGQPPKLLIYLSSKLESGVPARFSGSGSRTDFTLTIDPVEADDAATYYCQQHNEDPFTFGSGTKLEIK = 7e+06
• anti-ILT3 antibody 12A12 (antibody, V domains shown, Mouse monoclonal antibody from hybridoma) VH: EVQLQQSGPELVKPGASVKISCKASGYTFTDYNMDWVKQSHGKSLEWIGYIYPNNGGTGYNQKFNSKATLTVDKSSSTAYMELHSLTSEDSAVYYCASSPYYDYVGSYAMDYWGQGTSVTVSS VL: QIVLTQSPAIMSASLGERVTMTCTASSSVSSSYLHWYQQKPGSSPKLWIYSTSNLASGVPARFSGSGSGTSYSLTISSMEAEDAATYYCHQYHRSPRTFGGGTKLEIK = 110000
• anti-ILT3 antibody 45G10 (antibody, V domains shown, Mouse monoclonal antibody from hybridoma) VH: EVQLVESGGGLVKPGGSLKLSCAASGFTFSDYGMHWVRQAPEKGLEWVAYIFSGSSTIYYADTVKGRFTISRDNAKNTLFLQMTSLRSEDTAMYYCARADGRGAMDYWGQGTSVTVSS VL: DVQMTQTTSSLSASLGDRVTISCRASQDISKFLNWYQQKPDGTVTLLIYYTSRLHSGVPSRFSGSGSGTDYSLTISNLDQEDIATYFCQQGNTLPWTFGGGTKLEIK = 390000
• anti-ILT3 antibody 16C5 (antibody, V domains shown, Mouse monoclonal antibody from hybridoma) VH: EVQLQQSGPELVKPGASVKISCKASGYTFTDYNMDWVKQSHGKSLEWIGYIYPSNGGTGYNQKFKSKATLTVDKSSNTAYMELHSLTSEDSAVYYCARVPYYDYLYYYAMDYWGQGTSVTVSS VL: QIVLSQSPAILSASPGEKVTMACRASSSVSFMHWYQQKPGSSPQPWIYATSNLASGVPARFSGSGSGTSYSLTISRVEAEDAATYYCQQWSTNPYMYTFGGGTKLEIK = 110000
• anti-ILT3 antibody 53F10 (antibody, V domains shown, Mouse monoclonal antibody from hybridoma) VH: EVQVVESGGGLVKPGGSLKLSCAASGFTFSDYGMHWVRQAPEKGLEWVAYISTGIITVYYADTVKGRFTMSRDNAKNTLFLQMTSLRSEDTAIYYCARADGRGAMDYWGQGTSVIVSS VL: DIQMTQTTSSLSASLGDRVTISCRASQDISNFLNWYQQKPDGTVTLLIYYTSRLHSGVPSRFSGSGSGTDYSLTISNLEQEDFATYFCQQGNTLPWTFGGGTKLEIK = 330000
